assay: NCI Yeast Anticancer Drug Screen. Data for the bub3 strain (AID 167); conditions: S. cerevisiae bub3 mutant strain, at 50.0 µM, stronger effect = higher value
This is part of a sample that, as a whole, favours compounds with a hit. Of some 79,000 tested, about 15% had one in any assay.
Classification field: y = growth inhibition at or over 80%; n = growth inhibition under 80%.

Exercise: Form field: growth inhibition at least 80%? Entry: "O=[N+]([O-])c1cc([N+](=O)[O-])c2cccnc2c1O"
Key: y

Exercise: Form field: growth inhibition at least 80%? Entry: "C[CH2][Sn]([CH2]C)([O]C(C)=O)[O][Sn]([CH2]C)([CH2]C)[O]C(C)=O"
Key: y

Exercise: Form field: growth inhibition at least 80%? Entry: "CS/C([S-])=N/N=C/c1ccccn1.[Cl][Pt+]"
Key: n

Exercise: Form field: growth inhibition at least 80%? Entry: "COc1cc(C(=O)CCN(CCCl)CCCl)cc(OC)c1OC"
Key: y

Exercise: Form field: growth inhibition at least 80%? Entry: "CCOc1ccc(/C=C/[N+](=O)[O-])cc1[N+](=O)[O-]"
Key: y

Exercise: Form field: growth inhibition at least 80%? Entry: CC1CN1C1=C(Cl)C(=O)C(N2CC2C)=C(Cl)C1=O (stereo unspecified)
Key: n

Exercise: Form field: growth inhibition at least 80%? Entry: "O=C(N/N=C/c1cc(Cl)cc(Cl)c1[O-])c1ccccc1O.O=C(N/N=C/c1cc(Cl)cc(Cl)c1[O-])c1ccccc1O.[Zn+2]"
Key: y

Exercise: Form field: growth inhibition at least 80%? Entry: C[C@@H]1CCC2[C@@H](C)[C@H](O[C@H]3O[C@@H]4O[C@@]5(C)CCC6[C@H](C)CCC([C@H]3C)[C@]64OO5)O[C@@H]3O[C@@]4(C)CCC1[C@@]23OO4 (stereo partly specified)
Key: y

Exercise: Form field: growth inhibition at least 80%? Entry: "CC(C)=[CH][Sb]([Br])([CH]=C(C)C)([CH]=C(C)C)[c]1ccccc1"
Key: n

Exercise: Form field: growth inhibition at least 80%? Entry: "CC(C)(Br)C(=O)C(Br)Br"
Key: y

Exercise: Form field: growth inhibition at least 80%? Entry: "CCOC(=O)/C(=C\c1ccc(C(=O)OC)cc1)[Se]c1ccccc1"
Key: n

Exercise: Form field: growth inhibition at least 80%? Entry: "CC(=O)Nc1ccc(/C=N/N=C(/N)N[N+](=O)[O-])cc1"
Key: n

Exercise: Form field: growth inhibition at least 80%? Entry: "CC(=O)[O-].O=C([CH-]C(=O)c1ccccc1)c1ccccc1.O=C([CH-]C(=O)c1ccccc1)c1ccccc1.[Sm+3]"
Key: y

Exercise: Form field: growth inhibition at least 80%? Entry: "CCC(C)(C)c1ccc(OP(=S)(S)Oc2ccc(C(C)(C)CC)cc2)cc1"
Key: n

Exercise: Form field: growth inhibition at least 80%? Entry: "Nc1nc(N)c(-c2ccc(Cl)c(Cl)c2)c(CCc2ccc(CNC(=O)c3ccc(S(=O)(=O)F)cc3)cc2)n1"
Key: n

Exercise: Form field: growth inhibition at least 80%? Entry: "Cc1c([N+](=O)[O-])oc2ccc3ccccc3c12"
Key: n

Exercise: Form field: growth inhibition at least 80%? Entry: "CC(=O)O[C@H]1CC[C@H]2[C@@H]3CCC4=CC(=O)CC[C@@H]4[C@H]3CC[C@]12C"
Key: n

Exercise: Form field: growth inhibition at least 80%? Entry: "Cc1nc2c(Br)cc(Br)cc2c(=O)n1-c1ccccc1N"
Key: n

Exercise: Form field: growth inhibition at least 80%? Entry: COc1c(O)c2c(c3cc(C(=O)N4CCc5c4c(O)c(OC)c4[nH]c(C(=O)N6CC7CC78C6=CC(=O)c6[nH]cc(C)c68)cc54)[nH]c13)CCN2C(N)=O (stereo unspecified)
Key: y

Exercise: Form field: growth inhibition at least 80%? Entry: N#CC(Nc1c(N)nc(-c2ccccc2)nc1N)c1ccc(N(CCCl)CCCl)cc1 (stereo unspecified)
Key: n

Exercise: Form field: growth inhibition at least 80%? Entry: "COc1cc(C=Nc2cc(Br)c(OC)c(Br)c2)ccc1N(CCCl)CCCl"
Key: n

Exercise: Form field: growth inhibition at least 80%? Entry: "O=C1[O][Hg][c]2cccc3cccc1c23"
Key: y

Exercise: Form field: growth inhibition at least 80%? Entry: "Cc1cccc(NC(=O)CBr)c1"
Key: y

Exercise: Form field: growth inhibition at least 80%? Entry: "Nc1ccccc1C(=O)OCCc1ccccc1"
Key: y

Exercise: Form field: growth inhibition at least 80%? Entry: "Br[Se]c1ccccn1"
Key: y

Exercise: Form field: growth inhibition at least 80%? Entry: "COc1cc(/C=C/c2ccc(OC)c(OC)c2)cc(OC)c1"
Key: n

Exercise: Form field: growth inhibition at least 80%? Entry: COC1C(C)OC(OC2CC(C)(O)Cc3cc4c(c(O)c32)C(=O)c2c(O)cc3c(c2C4=O)OC2OC3(C)C(O)C(N(C)C)C2O)C(OC)C1(C)OC (stereo unspecified)
Key: y

Exercise: Form field: growth inhibition at least 80%? Entry: "COc1ccc(-c2c(C)c(C(=O)O)nc(-c3ccc4c(O)c(OC)c5c(c4n3)=NC(C)(C)N=5)c2N)c(O)c1OC"
Key: n

Exercise: Form field: growth inhibition at least 80%? Entry: "C=CCN1C(=O)NC(=O)/C(=C/c2c3ccccc3cc3ccccc23)C1=O"
Key: y

Exercise: Form field: growth inhibition at least 80%? Entry: "CC(C)(c1ccccc1)c1ccc(O)cc1"
Key: y

Exercise: Form field: growth inhibition at least 80%? Entry: "CC(=O)[O][Hg][c]1cc2c(cc1O)Cc1cc([N+](=O)[O-])ccc1-2"
Key: y

Exercise: Form field: growth inhibition at least 80%? Entry: CCC1CC2C3Cc4ccc(OC)c(O)c4C2(CCN3C)CC1=O (stereo unspecified)
Key: n

Exercise: Form field: growth inhibition at least 80%? Entry: "CN(C)C(=S)[S][Sb]([c]1ccccc1)[c]1ccccc1"
Key: y

Exercise: Form field: growth inhibition at least 80%? Entry: CCOP(=O)(O)C(Nc1ccc(N=Nc2ccccc2)cc1)c1cccc(C(Nc2ccc(N=Nc3ccccc3)cc2)P(=O)(O)OCC)c1 (stereo unspecified)
Key: n

Exercise: Form field: growth inhibition at least 80%? Entry: "NC(=O)c1ccc(N)nc1"
Key: n

Exercise: Form field: growth inhibition at least 80%? Entry: CCC[CH2][Sn]1([CH2]CCC)[O]CC(CN2CCCC2)[O]1 (stereo unspecified)
Key: y

Exercise: Form field: growth inhibition at least 80%? Entry: "CCC[CH2][Sn]([Cl])([Cl])[CH2]CCC"
Key: y

Exercise: Form field: growth inhibition at least 80%? Entry: "CCOCCOC(=O)Cc1ccccc1"
Key: y

Exercise: Form field: growth inhibition at least 80%? Entry: "Cc1ccc2c(c1N)C(=O)c1ccccc1C2=O"
Key: n
